- System: 379773-124-R-J2-PDC spheroid viability
- methodNotes: Anticancer human tumor 379773-124-R-J2-PDC patient-derived endometrial carcinoma cell line growth inhibition [POLQ]
- measurementSetup: second compound 10 µM; first compound 0.000316 µM; hits give low values; spheroids with HUVEC and MSC
- Experimental: Multicellular complex tumor spheroid response to Polymerase (POL) inhibitors (novobiocin, ART-558, RP6685) in combination with a variety of drugs and investigational agents in selected tumor cell lines The POL inhibitors (novobiocin, ART-558, and RP6685) were evaluated both individually and in combination with standard of care and investigational anticancer small molecules within a complex spheroid model of solid tumors. . […]
Lab note: compare viability, T/C with 90%, writing true if less and false if equal or more.

For orientation, consider the following solved cases.
compound: Cn1ncnc1[C@H]1c2n[nH]c(=O)c3cc(F)cc(c23)N[C@@H]1c1ccc(F)cc1 + Cc1cccc(N(C)C(=O)C2C(O)CCN2c2nc(C)cc(C(F)(F)F)c2C#N)c1
classification: true
//
compound: CC[C@@]1(O)C(=O)OCc2c1cc1n(c2=O)Cc2cc3c(CN(C)C)c(O)ccc3nc2-1 + COC1C(OC(N)=O)C(O)C(Oc2ccc3c(O)c(NC(=O)c4ccc(O)c(CC=C(C)C)c4)c(=O)oc3c2C)OC1(C)C
classification: true
//
compound: Cn1ncnc1[C@H]1c2n[nH]c(=O)c3cc(F)cc(c23)N[C@@H]1c1ccc(F)cc1 + COC1C(OC(N)=O)C(O)C(Oc2ccc3c(O)c(NC(=O)c4ccc(O)c(CC=C(C)C)c4)c(=O)oc3c2C)OC1(C)C
classification: true
//
compound: CC[C@@]1(O)C(=O)OCc2c1cc1n(c2=O)Cc2cc3c(CN(C)C)c(O)ccc3nc2-1 + Cc1cccc(N(C)C(=O)C2C(O)CCN2c2nc(C)cc(C(F)(F)F)c2C#N)c1
classification: false

Switching to the query record.
Problem: Confirm or reject: viability, T/C of CC[C@@]1(O)C(=O)OCc2c1cc1n(c2=O)Cc2cc3c(CN(C)C)c(O)ccc3nc2-1 + Nc1ccc(C#CCN(C(=O)Cc2ncc(C(F)(F)F)cc2C(F)(F)F)c2ccc(F)cc2)nn1 lies strictly below 90%
Solution: false

###

Provide the reported viability, T/C of each item.
- Tested on: 379773-124-R-J2-PDC spheroid viability
- methodNotes: Anticancer human tumor 379773-124-R-J2-PDC cell line growth inhibition [POLQ];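 further: spheroids exposed to drugs for seven days before readout; percent viability relative to DMSO vehicle control taken as 100%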
- measurementSetup: second compound 10 µM; first compound 0.001 µM; hits give low values; spheroids with HUVEC and MSC
One number for each entry, in %.

compound: Cn1ncnc1[C@H]1c2n[nH]c(=O)c3cc(F)cc(c23)N[C@@H]1c1ccc(F)cc1 + COC1C(OC(N)=O)C(O)C(Oc2ccc3c(O)c(NC(=O)c4ccc(O)c(CC=C(C)C)c4)c(=O)oc3c2C)OC1(C)C
viability, T/C, %: 87

compound: CC[C@@]1(O)C(=O)OCc2c1cc1n(c2=O)Cc2cc3c(CN(C)C)c(O)ccc3nc2-1 + COC1C(OC(N)=O)C(O)C(Oc2ccc3c(O)c(NC(=O)c4ccc(O)c(CC=C(C)C)c4)c(=O)oc3c2C)OC1(C)C
viability, T/C, %: 73.3

Field: next compound
Problem: Request the reported viability, T/C associated with Cn1ncnc1[C@H]1c2n[nH]c(=O)c3cc(F)cc(c23)N[C@@H]1c1ccc(F)cc1 + Nc1ccc(C#CCN(C(=O)Cc2ncc(C(F)(F)F)cc2C(F)(F)F)c2ccc(F)cc2)nn1
Solution: 90.6
